target: Polycomb protein EED (Homo sapiens, UniProt O75530); assay: Inhibition of pyrrolidine inhibitor-based oregon-green probe binding to GST-tagged EED (unknown origin) after 1 hr by LanthaScreen TR-FRET assay
Sequence (O75530 whole entry): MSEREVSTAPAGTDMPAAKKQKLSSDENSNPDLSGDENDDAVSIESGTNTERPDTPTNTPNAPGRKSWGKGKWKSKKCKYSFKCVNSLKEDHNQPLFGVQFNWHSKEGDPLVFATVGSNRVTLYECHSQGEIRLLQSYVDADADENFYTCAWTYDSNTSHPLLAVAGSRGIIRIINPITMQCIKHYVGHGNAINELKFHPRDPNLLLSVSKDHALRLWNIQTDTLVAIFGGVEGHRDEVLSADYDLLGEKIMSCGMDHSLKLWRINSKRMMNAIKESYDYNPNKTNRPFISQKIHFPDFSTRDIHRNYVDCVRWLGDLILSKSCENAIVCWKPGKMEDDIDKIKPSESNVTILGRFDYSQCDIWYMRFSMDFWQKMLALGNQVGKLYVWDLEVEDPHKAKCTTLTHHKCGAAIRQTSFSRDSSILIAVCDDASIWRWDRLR
As shown below, each of these compounds has a reported IC50 value.
recorded-metric: IC50 (nM)

INSERT INTO assay_data (line_notation, recorded_metric, val) VALUES
  ('Cc1cc([C@H]2CN(Cc3c(C)cccc3F)C[C@@H]2N(C)C)ccc1C(=O)Nc1cccnc1', 'IC50', 100),
  ('Cc1cccc(F)c1CN1C[C@H](c2ccc(N3CCN(c4ccccc4S(C)(=O)=O)CC3)cc2)[C@@H](N(C)C)C1', 'IC50', 190),
  ('Cc1cc([C@H]2CN(Cc3c(C)cccc3F)C[C@@H]2N(C)C)ccc1C(=O)NCc1ccncc1', 'IC50', 110),
  ('Cc1cccc(F)c1CN1C[C@H](c2ccc(N3CCC(C)CC3)cc2)[C@@H](N(C)C)C1', 'IC50', 140);
